Test system: Escherichia coli IAI1
assay-summary: growth (OD595) fold change vs plate DMSO controls (fold change (ratio)); higher = more growth
condition: incubation time: 27 h, anaerobic, 37 °C
Counter-ions that a name gives are not always drawn.
Each item that follows carries a reported growth.
Reply with the value as a number alone.

Sample records with growth:
| compound | tested-system | reported-value |
| --- | --- | --- |
| CCN(CC)CCOC(=O)c1ccc(N)cc1 [Procaine hydrochloride] (20 µM) | Escherichia coli IAI1 | 1.24 |
| CC(=O)CC(c1ccccc1)c1c(O)c2ccccc2oc1=O (configuration not stated) (20 µM) | Escherichia coli IAI1 | 0.981 |
| Cn1cc(C(=O)Nc2ccc(F)cc2-c2ccc(Cl)c(Cl)c2)c(C(F)F)n1 (20 µM) | Escherichia coli IAI1 | 1 |
| C/C(=C(\CCOP(=O)(O)O)SC(=O)c1ccccc1)N(C=O)Cc1cnc(C)nc1N [Benfotiamine] (20 µM) | Escherichia coli IAI1 | 0.98 |
| CC1(C)NC(=O)N(c2ccc([N+](=O)[O-])c(C(F)(F)F)c2)C1=O [Nilutamide] (20 µM) | Escherichia coli IAI1 | 1.02 |
| Nc1ccc2cc3ccc(N)cc3nc2c1 [Proflavine hemisulfate] (20 µM) | Escherichia coli IAI1 | 0.951 |
| O=C(CCCCC(=O)Nc1c(I)cc(I)c(C(=O)O)c1I)Nc1c(I)cc(I)c(C(=O)O)c1I [Iodipamide] (20 µM) | Escherichia coli IAI1 | 1.01 |
| COc1ccc(CN(CCN(C)C)c2ccccn2)cc1 [Pyrilamine maleate] (20 µM) | Escherichia coli IAI1 | 0.962 |
| CCCC1O[C@@H]2C[C@H]3[C@@H]4CCC5=CC(=O)C=C[C@]5(C)[C@H]4[C@@H](O)C[C@]3(C)[C@]2(C(=O)CO)O1 (some centres not stated) [Budesonide] (20 µM) | Escherichia coli IAI1 | 0.993 |
| CN(C)CC/C=C1\c2ccccc2CSc2ccccc21 [Dosulepin hydrochloride] (20 µM) | Escherichia coli IAI1 | 0.99 |

*Q* Would you mind telling me what growth value was observed for O=C1C(CC[S+]([O-])c2ccccc2)C(=O)N(c2ccccc2)N1c1ccccc1 (configuration not stated) [Sulfinpyrazone] (20 µM) ?
*A* 0.972

*Q* Would you mind telling me what growth value was observed for OCCOCCN1CCN(C2=Nc3ccccc3Sc3ccccc32)CC1 [Quetiapine hemifumarate] (20 µM) ?
*A* 1.13

*Q* Would you mind telling me what growth value was observed for CC(C)[C@H](N)C(=O)OCC(CO)OCn1cnc2c(=O)nc(N)[nH]c21 (some centres not stated) [Valganciclovir hydrochloride] (20 µM) ?
*A* 0.991

*Q* Would you mind telling me what growth value was observed for Nc1ccc(S(=O)(=O)Nc2ccc(Cl)nn2)cc1 [Sulfachloropyridazine] (20 µM) ?
*A* 0.966

*Q* Would you mind telling me what growth value was observed for CC1(C)S[C@@H]2[C@H](NC(=O)Cc3ccccc3)C(=O)N2[C@H]1C(=O)O [Benzylpenicillin sodium] (20 µM) ?
*A* 1.19

*Q* Would you mind telling me what growth value was observed for O=C(O)c1cc(=O)c2ccccc2o1 [Chromocarb] (20 µM) ?
*A* 0.984

*Q* Would you mind telling me what growth value was observed for C[N+](C)(C)CCOC(N)=O [Carbachol chloride] (20 µM) ?
*A* 1

###

Test system: Ruminococcus gnavus DSM 108212
assay-summary: fold change of 2-Phenylethylamine concentration vs plate DMSO controls (fold change (ratio)); higher = more amine produced, active = hit call of the paper (significant change in both replicates, either direction)
condition: incubation time: 27 h, anaerobic, 37 °C
Counter-ions that a name gives are not always drawn.
Each item that follows carries a reported fold change of 2-Phenylethylamine concentration.
Reply with the value as a number alone.

Sample records with fold change of 2-Phenylethylamine concentration:
| compound | tested-system | reported-value |
| --- | --- | --- |
| c1ccc(CNc2ncnc3nc[nH]c23)cc1 [Aminopurine, 6-benzyl] (20 µM) | Ruminococcus gnavus DSM 108212 | 0.856 |
| CCCNCC(O)COc1ccccc1C(=O)CCc1ccccc1 (centres undefined) [Propafenone hydrochloride] (20 µM) | Ruminococcus gnavus DSM 108212 | 1.06 |
| Cc1nc(=O)c2cc(CN(C)c3ccc(C(=O)N[C@@H](CCC(=O)O)C(=O)O)s3)ccc2[nH]1 [Raltitrexed] (20 µM) | Ruminococcus gnavus DSM 108212 | 1.06 |

Alright, here's another compound for you.
*Q* Would you mind telling me what fold change of 2-Phenylethylamine concentration value was observed for Cc1ccc(=O)n(-c2ccccc2)c1 [Pirfenidone] (20 µM) ?
*A* 0.958
